# Test system: Cavia porcellus
# TEST_DESCRIPTION: Inhibition of histamine induced bronchoconstriction in guinea pig after intravenous administration
# Type: functional
Reported ED50 by item:
Express your answer in mg/kg, writing the number without its unit.

COMPOUND	ED50, mg/kg
CCCCn1nc2c3ccccc3n(Cc3cccc(Cl)c3)cc-2c1=O	0.062
CCCCn1nc2c3ccccc3n(Cc3cccs3)cc-2c1=O	0.037
O=c1c2cn(Cc3cccs3)c3ccccc3c-2nn1C1CCCC1	0.083

// switching to the query compound
Ask | Value wanted: ED50 (Cavia porcellus) of entry COc1ccc(C2CNC(=O)C2)cc1OC1CCCC1 (stereo unspecified)
Reply | 0.004
